pIC50: −log10 of the molar value.
What follows is a record of pIC50 for human DGAT2 (hDGAT2) (Homo sapiens (Human)).

# COMPOUND, pIC50
data = [
    ("CC(C)n1nc(-c2cccc(C3CC3)c2)c2ncc(C(=O)NC3(C)CS(=O)(=O)C3)cc21", 7.51),
    ("CC1(NC(=O)c2cnc3c(-c4cccc(OC(F)F)c4)nn(C4COC4)c3c2)CS(=O)(=O)C1", 7.19),
    ("CC1(C)CC(n2nc(-c3cccc(OC(F)F)c3)c3ncc(C(=O)NC4(C)CS(=O)(=O)C4)cc32)C1", 8.54),
    ("CC1(NC(=O)c2cnc3c(-c4cccc(OC(F)F)c4)nn(C4CCOCC4C(F)(F)F)c3c2)CS(=O)(=O)C1 (stereo not shown)", 7.02),
]

====

Values of IC50 reported for human DGAT2 (hDGAT2) (Homo sapiens (Human), UniProt Q96PD7) appear below.
QUANTITY_KIND: IC50 (µM)

# SMILES_DATA, QUANTITY_KIND, READOUT_QUALIFIER, TEST_RESULT
rows = [
    ("C[C@]1(NC(=O)c2cc3c(cn2)c(-c2cccc(OC(F)F)c2)cn3C2CCOCC2)CCS(=O)(=O)C1", "IC50", "=", 0.612),
    ("CC(C)Cn1nc(-c2cccc(OC(F)F)c2)c2ncc(C(=O)NC3(C)CS(=O)(=O)C3)cc21", "IC50", "=", 0.029),
    ("CC(C)n1nc(-c2cccc(C(C)(F)F)c2)c2ncc(C(=O)NC3(C)CS(=O)(=O)C3)cc21", "IC50", "=", 0.21),
    ("CCN1CCN(C(=O)c2cnc3c(-c4cncc(OC(F)F)c4)nn(C(C)C)c3c2)CC1", "IC50", ">", 1),
]

====

# key: entry, value: IC50
Molecular target: human DGAT2 (hDGAT2) (Homo sapiens (Human))
QUANTITY_KIND: IC50 (nM)

# COMPOUND, QUANTITY_KIND, TEST_RESULT
records = [
    ("CC(C)n1nc(-c2cncc(OC(F)F)c2)c2ncc(C(=O)NC3(C)CS(=O)(=O)C3)cc21", "IC50", 26),
    ("Cn1nccc1-c1cn(C2CCOCC2)c2cc(C(=O)N[C@@]3(C)CCS(=O)(=O)C3)c(F)cc12", "IC50", 5430),
    ("CC(C)n1nc(-c2cncc(OC(F)(F)F)c2)c2ncc(C(=O)NC3(C)CS(=O)(=O)C3)cc21", "IC50", 20),
    ("CC(CS(C)(=O)=O)NC(=O)c1cnc2c(-c3cccc(OC(F)F)c3)cn(-c3ncc(F)cn3)c2c1 (stereo not drawn)", "IC50", 72),
    ("CC1(NC(=O)c2cnc3c(-c4cccc(OC(F)F)c4)nn(C4CC(F)(F)C4)c3c2)CS(=O)(=O)C1", "IC50", 24),
    ("CC(C)n1nc(-c2cc(OC(F)F)ccc2F)c2ncc(C(=O)NC3(C)CS(=O)(=O)C3)cc21", "IC50", 1),
    ("CC(C)n1nc(-c2cccc(F)c2)c2ncc(C(=O)NC3(C)CS(=O)(=O)C3)cc21", "IC50", 119),
    ("CC(C)(C)Cn1nc(-c2cccc(OC(F)F)c2)c2ncc(C(=O)NC3(C)CS(=O)(=O)C3)cc21", "IC50", 388),
    ("C[C@]1(NC(=O)c2cc3c(cn2)c(-c2cccc(OC(F)F)c2)nn3-c2ccc(F)cc2)CCS(=O)(=O)C1", "IC50", 11),
    ("CC(C)n1nc(-c2cncc(C3CC3)c2)c2ncc(C(=O)NC3(C)CS(=O)(=O)C3)cc21", "IC50", 85),
    ("CC(C)n1nc(-c2cccc(OC(F)F)c2)c2c(F)cc(C(=O)NC3(C)CS(=O)(=O)C3)cc21", "IC50", 1),
    ("C[C@]1(NC(=O)c2cc3c(cn2)c(-c2cccc(OC(F)F)c2)cn3-c2ccc(F)cc2)CCS(=O)(=O)C1", "IC50", 23),
    ("CC(C)n1nc(-c2cccc(OC(F)F)c2)c2c(C#N)cc(C(=O)NC3(C)CS(=O)(=O)C3)cc21", "IC50", 2),
    ("CC(C)n1nc(-c2cccc(OC(F)F)c2)c2ncc(C(=O)NC3(C(C)(C)O)CCOCC3)cc21", "IC50", 638),
    ("CC(C)(O)Cn1nc(-c2cccc(C3CC3)c2)c2ncc(C(=O)NC3(C)CS(=O)(=O)C3)cc21", "IC50", 6),
]

====

Target: human DGAT2 (hDGAT2) (Homo sapiens (Human), UniProt Q96PD7)
Sequence (Q96PD7 whole entry): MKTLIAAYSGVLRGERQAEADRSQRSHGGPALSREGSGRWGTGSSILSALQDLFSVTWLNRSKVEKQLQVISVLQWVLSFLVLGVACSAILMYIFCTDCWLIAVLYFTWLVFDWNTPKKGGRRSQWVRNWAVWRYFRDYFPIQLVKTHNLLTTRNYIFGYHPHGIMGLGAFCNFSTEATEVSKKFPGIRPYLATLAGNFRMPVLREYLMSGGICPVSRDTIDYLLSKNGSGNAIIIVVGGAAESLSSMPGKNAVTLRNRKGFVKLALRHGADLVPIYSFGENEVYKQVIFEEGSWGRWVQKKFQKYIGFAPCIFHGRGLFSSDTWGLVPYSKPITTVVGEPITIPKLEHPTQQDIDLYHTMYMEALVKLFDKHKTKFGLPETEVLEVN
log10 IC50 values by entry
QUANTITY_KIND: log10 IC50 (log10 of the value in nM)

# COMPOUND, log10 IC50
records = [
    ("CC(C)n1nc(-c2cccc(OC(F)F)n2)c2ncc(C(=O)NC3(C)CS(=O)(=O)C3)cc21 [Example 96]", 3.74),
    ("CC1(NC(=O)c2cnc3c(-c4cccc(OC(F)F)c4)nn(-c4ncc(F)cn4)c3c2)CS(=O)(=O)C1 [Example 4]", 1.23),
    ("CC(C)n1nc(-c2cc(OCC(F)F)ncc2F)c2ncc(C(=O)NC3(C)CS(=O)(=O)C3)cc21 [Example 121]", 0.92),
    ("CC(C)n1nc(-c2cccc(OC(F)F)c2)c2ncc(C(=O)NC3(CO)CC(F)(F)C3)cc21 [Example 51]", 1.23),
    ("CC1(NC(=O)c2cnc3c(-c4cccc(OC(F)F)c4)nn(CC4CCOCC4)c3c2)CS(=O)(=O)C1 [Example 69]", 1.77),
    ("C[C@@]1(NC(=O)c2cnc3c(-c4ccccc4Cl)cn(-c4ccc(F)cc4)c3c2)CCS(=O)(=O)C1 [Example 12]", 2.55),
    ("CC(C)n1nc(-c2cccc(OC(F)F)c2)c2ncc(C(=O)NC3(C(C)O)CCOC3)cc21 (single isomer, unassigned) [Example 50d]", 2.18),
    ("CC(C)[C@H](NC(=O)c1cnc2c(-c3cncc(OC(F)F)c3)nn(C(C)C)c2c1)[C@H](C)O [Example 54]", 1.11),
    ("CC(C)n1nc(-c2cc(OC3CCC3)ccc2F)c2ncc(C(=O)NC3(C)CS(=O)(=O)C3)cc21 [Example 109]", 1.04),
    ("Cc1nc2c(-c3nn(C(C)C)c4cc(C(=O)NC5(C)CS(=O)(=O)C5)cnc34)cccc2o1 [Example 123]", 2.69),
    ("C[C@]1(NC(=O)c2cnc3c(-c4cccc(OC(F)F)c4)cn(C4CCOCC4)c3c2)CCS(=O)(=O)C1 [Example 81]", 2.32),
    ("CC[C@H](C)n1nc(-c2cc(OC(F)F)ncc2F)c2ncc(C(=O)NC3(C)CCS(=O)(=O)CC3)cc21 [Example 116]", 1.06),
    ("CC(C)n1nc(-c2cncc(OC(F)F)c2)c2ncc(C(=O)N[C@H]3CCC[C@H]3O)cc21 [Example 105]", 1.89),
]

====

Biological target: human DGAT2 (hDGAT2) (Homo sapiens (Human), UniProt Q96PD7)
Examples of compounds with documented IC50 follow.
QUANTITY_KIND: IC50 (nM)

# COMPOUND, UNIT_STRING, TEST_RESULT
measured = [
    ("CC(C)n1nc(-c2cc(OC(F)F)ccc2Cl)c2ncc(C(=O)NC3(C)CS(=O)(=O)C3)cc21", "nM", 7.2),
    ("C[C@]1(NC(=O)c2cc3c(cn2)c(-c2cncc(OC(F)F)c2)nn3-c2ccc(F)cc2)CCS(=O)(=O)C1", "nM", 89),
    ("CC1(NC(=O)c2cnc3c(-c4cccc(OC(F)F)c4)nn(C4CC4)c3c2)CS(=O)(=O)C1", "nM", 99),
    ("CC(C)NC(=O)c1cnc2c(-c3cccc(OC(F)F)c3)cn(-c3ncc(F)cn3)c2c1", "nM", 209),
    ("CC(O)C(C)NC(=O)c1cnc2c(-c3cccc(OC(F)F)c3)nn(C(C)C)c2c1 (stereo not drawn) [Example 45a]", "nM", 23),
    ("CC(=O)Nc1ccc(-c2nn(C(C)C)c3cc(C(=O)NC4(C)CS(=O)(=O)C4)cnc23)cc1O", "nM", 620),
    ("CN(C)[C@H]1COC[C@@H]1NC(=O)c1cnc2c(-c3cccc(OC(F)F)c3)cn(-c3ncc(F)cn3)c2c1", "nM", 119),
    ("CC(C)n1nc(-c2cccc(OC(F)F)c2)c2ncc(C(=O)N[C@H]3CCCC[C@@H]3O)cc21", "nM", 17),
    ("C[C@]1(NC(=O)c2cc3c(cn2)c(-c2cncc(OC(F)F)c2)nn3C2CCOCC2)CCS(=O)(=O)C1", "nM", 10000),
    ("C[C@]1(NC(=O)c2cnc3c(-c4cncc(OC(F)F)c4)cn(C4CCOCC4)c3c2)CCS(=O)(=O)C1", "nM", 875),
    ("CC(C)n1nc(-c2cccc(C#N)c2)c2ncc(C(=O)NC3(C)CS(=O)(=O)C3)cc21", "nM", 109),
    ("CC(C)n1nc(-c2cc(OCC(F)(F)F)ncc2F)c2ncc(C(=O)NC3(C)CS(=O)(=O)C3)cc21", "nM", 7.7),
    ("CC(C)n1nc(-c2ccnc(OC(F)F)c2)c2ncc(C(=O)NC3(C)CS(=O)(=O)C3)cc21", "nM", 139),
    ("CC(C)n1nc(-c2cccc(C3(C(F)(F)F)CC3)c2)c2ncc(C(=O)NC3(C)CS(=O)(=O)C3)cc21", "nM", 2280),
    ("CC(C)n1nc(-c2cc(OC(F)(F)F)ccc2F)c2ncc(C(=O)NC3(C)CCS(=O)(=O)CC3)cc21", "nM", 20),
]
